assayed.target: canine CD3 on canine T cells (canine PBMC) (canine, UniProt P27597 22-202)
Sequence (P27597 22-202 limits assumed, chain 1 of 3): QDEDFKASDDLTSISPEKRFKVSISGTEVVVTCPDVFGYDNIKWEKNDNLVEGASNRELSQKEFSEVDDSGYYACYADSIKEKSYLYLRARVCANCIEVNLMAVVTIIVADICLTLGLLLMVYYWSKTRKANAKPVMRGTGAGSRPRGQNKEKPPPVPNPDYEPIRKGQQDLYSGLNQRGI
Sequence (chain, as listed by the source limits assumed, chain 2 of 3): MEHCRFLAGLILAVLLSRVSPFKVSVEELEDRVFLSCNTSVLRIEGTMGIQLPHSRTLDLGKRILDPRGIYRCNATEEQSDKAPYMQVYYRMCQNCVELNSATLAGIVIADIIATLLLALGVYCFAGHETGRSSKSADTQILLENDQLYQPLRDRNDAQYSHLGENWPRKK
Sequence (chain, as listed by the source limits assumed, chain 3 of 3): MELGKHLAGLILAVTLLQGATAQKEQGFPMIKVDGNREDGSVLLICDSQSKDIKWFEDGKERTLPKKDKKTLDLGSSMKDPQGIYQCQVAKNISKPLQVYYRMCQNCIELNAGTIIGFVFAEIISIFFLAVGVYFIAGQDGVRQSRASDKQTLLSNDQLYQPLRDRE
test.protocol: cell-based or functional assay
measurement.label: Ki67 Proliferation, Day 9, PB
Output: the number by itself.

[ask] Fill in the blank: the reported Ki67 Proliferation, Day 9, PB of PMX167 (monospecific anti-canine CD3, canine IgG-B effector function deficient Fc) (antibody, V domains shown) VH: EVKLVESGGDLVKPGGSLRLSCMASGFTLNNYYMSWVRQAPGKGLQWVAYIKSGGSDTSYVDAVKGRFTISRDNAKNTLHLQMNSLRVEDTAVYYCATDGYIWAWGQGTLVTVSS VL: SYVLTQLPSKNVTLKQPAHITCGGDNIGSKSVHWYQQKLGQAPVLIIYYDNSRPTGIPERFSGAKSGNTATLTISGALAEDEADYYCQVWDSSSKAYVFGSGTQLTVL is ____.
[reply] 0.25

[ask] Fill in the blank: the reported Ki67 Proliferation, Day 9, PB of PMX183 (monospecific anti-canine CD3, canine IgG-B effector function deficient Fc) (antibody, V domains shown) VH: ELTLQESGPGLVKPSQTLSLTCVVSGGSVTNSYYWNWIRQRPGRELEWMGYWTGGTKYNPAFQGRISISADTAKNQFSLQLTSMTTEDTAVYYCARDRDRRVPHAYGYWGQGTLVTVSS VL: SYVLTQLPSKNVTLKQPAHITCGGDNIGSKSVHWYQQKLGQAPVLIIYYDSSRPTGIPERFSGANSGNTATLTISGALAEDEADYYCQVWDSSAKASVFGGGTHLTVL is ____.
[reply] 0.48

[ask] Fill in the blank: the reported Ki67 Proliferation, Day 9, PB of PMX175 (monospecific anti-canine CD3, canine IgG-B effector function deficient Fc) (antibody, V domains shown) VH: ELTLQESGPGLVKPSQTLSLTCVVSGGSVTSTYYWNWIRQRPGRGLEWMGYWTGTTNYNPAFQGRISITADTAKNQFSLQLSSMTTEDTAVYYCAREDLVTVGSGAFNYWGQGTLVTVSS VL: SYVLTQLPSKNVTLKQPAHITCGGDNIGSKSVHWYQQKLGQAPVLIIYYDSSRPTGIPERFSGANSGNTATLTISGALAEDEADYYCQVWDSSATWVFGEGTQLTVL is ____.
[reply] 0.95
